B1: Retinoic acid receptor RXR-alpha, residues 132 to 208; numbered along this chain, P19793 (parent)
chain: KHICAICGDRSSGKHYGVYSCEGCKGFFKRTVRKDLTYTCRDNKDCLIDKRQRNRCQYCRYQKCLAMGMKREAVQEE

# Variants of: B1
# ASSAY INFO: abundance fitness (aPCA) (normalised: wild type 0, dead -1); higher = more abundant; growth selection in yeast, the domain comes from the species named
# ASSAY SETUP: Homo sapiens

| VAR | abundance fitness |
| --- | --- |
| Y38N | -0.101 |
| D49T | -0.07 |
| C7G | -0.921 |
| Y19D | -0.041 |
| C21A | -1.07 |
| L36C | 0.087 |
| Y16P | -0.082 |
| Y16Q | 0.063 |
| V18Y | -0.262 |
| H15F | -0.064 |
| D9H | -0.214 |
| G26I | -0.116 |
| K29L | 0.009 |
| C4E | -0.866 |
| S12F | -0.112 |
| H2S | 0.011 |
| H15V | -0.098 |
| D9Q | 0.033 |
| S12C | -0.657 |
| H15P | -0.034 |
| C4Q | -0.614 |
| H2Q | -0.031 |
| D45M | -0.404 |
| K50A | 0.037 |
| V18F | -0.144 |
| C40V | -0.737 |
| K1T | -0.435 |

Attribution: the Human Domainome abundance scans (Beltran et al. 2025)
